Molecular target: 5-HT1A receptor (Homo sapiens, UniProt P08908)
Construct: EGFP; expressed in transfected cells
Sequence (P08908 1-422): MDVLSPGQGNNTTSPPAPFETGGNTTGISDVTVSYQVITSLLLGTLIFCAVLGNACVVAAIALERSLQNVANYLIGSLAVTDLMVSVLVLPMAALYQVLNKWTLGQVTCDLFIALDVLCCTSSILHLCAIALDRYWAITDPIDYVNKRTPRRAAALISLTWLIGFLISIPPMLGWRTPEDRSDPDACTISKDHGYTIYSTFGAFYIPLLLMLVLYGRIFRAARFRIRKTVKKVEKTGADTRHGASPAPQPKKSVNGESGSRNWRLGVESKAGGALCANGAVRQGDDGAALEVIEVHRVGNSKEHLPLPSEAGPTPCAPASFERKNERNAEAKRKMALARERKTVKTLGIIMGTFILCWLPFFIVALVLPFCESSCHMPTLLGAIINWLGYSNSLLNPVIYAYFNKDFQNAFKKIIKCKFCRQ
Experiment: cAMP level (HTRF) in HEK293 cells that overexpress the 5-HT1AR gene
Format: cell-based
Conditions: agonist mode, 1 µM forskolin-stimulated HEK293-5-HT1A cells
Readout Name: pEC50
A value of pEC50 is the negative decimal logarithm of a concentration given in moles per litre.

Lookup: Provide pEC50 value for the following compound: COc1ccc2cccc(N3CCN(CCNC(=O)c4ccc(F)cc4)CC3)c2c1.Cl [Compound S14506, reference compound]
Found: 10.60
